Target: RAF proto-oncogene serine/threonine-protein kinase (Homo sapiens, UniProt P04049)
Sequence (P04049 whole entry): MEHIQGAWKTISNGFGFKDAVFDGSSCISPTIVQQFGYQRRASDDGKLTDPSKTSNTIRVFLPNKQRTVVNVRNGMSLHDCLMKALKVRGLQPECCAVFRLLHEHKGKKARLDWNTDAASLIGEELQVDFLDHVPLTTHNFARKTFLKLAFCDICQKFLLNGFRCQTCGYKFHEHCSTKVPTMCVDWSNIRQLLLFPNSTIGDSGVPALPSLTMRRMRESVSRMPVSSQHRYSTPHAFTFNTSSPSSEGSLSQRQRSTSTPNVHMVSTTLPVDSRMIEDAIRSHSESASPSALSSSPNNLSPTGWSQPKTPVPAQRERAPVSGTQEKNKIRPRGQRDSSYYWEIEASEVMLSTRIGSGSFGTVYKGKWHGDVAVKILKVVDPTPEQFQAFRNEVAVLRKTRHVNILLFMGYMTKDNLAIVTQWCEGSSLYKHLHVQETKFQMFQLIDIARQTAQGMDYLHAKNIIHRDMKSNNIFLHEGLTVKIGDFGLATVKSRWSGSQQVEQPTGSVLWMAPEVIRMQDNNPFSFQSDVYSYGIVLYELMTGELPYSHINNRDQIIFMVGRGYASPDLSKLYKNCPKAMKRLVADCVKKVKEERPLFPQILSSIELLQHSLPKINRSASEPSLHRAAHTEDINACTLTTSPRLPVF
Assay: Inhibition of CRAF (unknown origin) compound preincubated for 1 hr in presence of 0.5 uM ATP
MEASURED_ATTRIBUTE: IC50 (nM)
Write it as a number; the unit nM goes unstated.

Prompt: Give the reported value of IC50 for this record: N#Cc1c(Oc2ccc(F)c(NC(=O)Cc3cccc(C(F)(F)F)c3)c2)ccc2nc(NC(=O)C3CC3)sc12
Completion: 1.5

* * *

Target: Mitogen-activated protein kinase 14 (Homo sapiens, UniProt Q16539)
Sequence (Q16539 whole entry): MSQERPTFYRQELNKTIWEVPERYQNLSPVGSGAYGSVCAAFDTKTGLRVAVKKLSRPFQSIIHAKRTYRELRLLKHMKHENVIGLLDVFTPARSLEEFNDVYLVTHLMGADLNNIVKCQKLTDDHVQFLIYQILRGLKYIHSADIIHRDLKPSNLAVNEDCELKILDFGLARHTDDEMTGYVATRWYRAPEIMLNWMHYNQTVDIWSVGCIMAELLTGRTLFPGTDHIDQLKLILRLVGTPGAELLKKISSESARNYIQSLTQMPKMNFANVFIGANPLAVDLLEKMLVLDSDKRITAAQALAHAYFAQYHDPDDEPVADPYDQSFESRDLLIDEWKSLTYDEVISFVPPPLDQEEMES
Experiment: Inhibition of C-terminal FLAG-tagged p38 alpha (unknown origin) expressed in baculovirus system using MBP as substrate after 60 mins
MEASURED_ATTRIBUTE: IC50 (nM)
Write it as a number; the unit nM goes unstated.

Prompt: Provide IC50, recorded with Mitogen-activated protein kinase 14 (Homo sapiens, UniProt Q16539), of N#Cc1c(Oc2ccc(F)c(NC(=O)Cc3cccc(C(F)(F)F)c3)c2)ccc2nc(NC(=O)C3CC3)sc12
Completion: 600
